System: TK-10
test.method.notes: Anticancer activity against human TK10 cells assessed as cell growth promotion at 10^-5 M after 48 hrs by SRB assay relative to control
Format: functional
measurement.kind: Activity (%)
Answers are plain numbers, in %.

Sample records with Activity:
>>> print(df.to_string())
                               given_smiles  result_value
0  O=C(Nc1ccccc1C(=O)Nc1ccc(/C=C/C=C/c2ccccc2)cc1)c1ccccc1           114
1  N#Cc1ccc(/C=C/c2ccc(NC(=O)c3ccccc3NC(=O)c3ccco3)cc2)cc1           126

Let's switch to this compound now.
[ask] For the record C(=C\c1nc2ccccc2nc1SCc1nc2ccccc2[nH]1)/c1ccccc1 , what value of Activity is listed for TK-10?
[reply] 44.74
